Just for reference, PubChem BioAssay AID256 is where these values come from.

Tested on: CD2F1 mice, L1210 leukemia ip, survival T/C
Experiment: NCI In Vivo Anticancer Drug Screen. Data for tumor model L1210 Leukemia (intraperitoneal) in CD2F1 (CDF1) mice
Conditions: endpoint: mean survival time; dose: 200.0 mg/kg/injection; schedule: Q04DX003 (ip); vehicle: saline sonified; higher = longer survival
Experimental: The antitumor activity of compounds was measured in mice bearing transplantable tumors. Survival or tumor size were measured and the results are expressed as the measurement made in the treated group (T) divided by the measurement made in the vehicle treated control group (C). The tumor model used in this assay is L1210 Leukemia (intraperitoneal) in CD2F1 (CDF1) mice
Inconclusive results and toxic doses are left out.
Reported T/C values follow for various compounds

>  <Compound>
C=CCNC(=S)NCC

>  <T/C>
97 % of control

$$$$
>  <Compound>
CCC(C)C(NC(=O)OCc1ccccc1)C(=O)ON1C(=O)CCC1=O (configuration not stated)

>  <T/C>
90 % of control

$$$$
>  <Compound>
Cc1cscc(C)c1=S

>  <T/C>
98 % of control

$$$$
>  <Compound>
CCCCCC(C)(C)O

>  <T/C>
90 % of control

$$$$
>  <Compound>
C1COC2(CCC3(CC2)OCCO3)O1

>  <T/C>
101 % of control

$$$$
>  <Compound>
NC(=O)c1ncc(-c2ccc(Cl)cc2)[nH]c1=O

>  <T/C>
93 % of control

$$$$
>  <Compound>
COc1ccc(CCNC(=O)CCN2C(=O)CCC2=O)cc1OC

>  <T/C>
101 % of control

$$$$
